Origin of values: paper PMC12119275

# PROTOCOL: Pharmacokinetics analysis in mice
# PROTOCOL_CONDITIONS: C57 Bl/6, mouse, plasma, po, 30 mg/kg
MEASURED_METRIC: Cmax

Item under review: FC(F)(F)c1nc(Nc2ccc3c(c2)CCC(N2CCCC2)CC3)n(-c2cc3c(nn2)-c2ccccc2CCC3)n1 (stereo not shown) [WYS-694] . Reported Cmax?
556 ng/mL

----------
Quick reference for Tmax among some compounds
# PROTOCOL: Pharmacokinetics analysis in mice
# PROTOCOL_CONDITIONS: C57 Bl/6, mouse, plasma, po, 100 mg/kg
A number alone suffices; assume h.

c1ccc2c(c1)CCCc1cc(-c3nnc(Nc4ccc5c(c4)CCC(N4CCCC4)CC5)o3)nnc1-2 (centres unmarked) [WYS-633]: 2

Item under review: Nc1nc(Nc2ccc3c(c2)CC[C@@H](N2CCCC2)CC3)nn1-c1cc2c(nn1)-c1ccccc1CCC2 [Bemcentinib, bemcentinib, reference compound] . Reported Tmax?
13
